Recorded values, source the supplement of paper PMC12764529.

Entries and their folding stability dG unfold values follow.
Assay: folding stability dG unfold from chymotrypsin proteolysis; higher = more stable
Please respond with the number in kcal/mol and leave the unit unwritten.

Worked cases, folding stability dG unfold given:
residue-string: SAGGSAGGSAGGPKVFKFKDKIIVIYPNKKPNEEVKVVVKNPKTGKKEEFKIKIPKELLKSAGGSAGGSAGG [r7_834_TrMRF]
unit-abbrev: kcal/mol
folding stability dG unfold: 1.11
//
residue-string: SAGGSAGGSMSKPVKITTTRDPNSNVITIQVESEEDVIEFAKKKGINIKIEPTSENTYKLTLESAGGSAGGS [r12_810_JUSTAS]
unit-abbrev: kcal/mol
folding stability dG unfold: -0.0494
//
residue-string: SAGGSADELVVRLRVRDPRTERPLEIDLPVPASLTPEEAIARAERLAAAFRSLGLETEVEVEPVPRSAGGSA [r15_268_TrMRF]
unit-abbrev: kcal/mol
folding stability dG unfold: 1.88
//
residue-string: SAGNIKISYDPDDGWLTITFPVAPGQEFSFKLNIMLPENGAKIKNVEVTGPLKDGQPVTITMKVTGIKPSAG [r5_737_TrROS]
unit-abbrev: kcal/mol
folding stability dG unfold: 3.77
//
residue-string: SAGGSAGGSAMKVITLPENADINKVIEAVEAGSPILVKIVDPKSSKTTDLPLPSKEAVEKLSAGGSAGGSAG [r3_362_JUSTAS]
unit-abbrev: kcal/mol
folding stability dG unfold: -0.394
//
residue-string: SAGGSAGGSAPIKITEHTYNPGDGMVWATAEAEDPNGWKIKLTIWFFPDGNIQIEITEIVPSAGGSAGGSAG [r3_7_TrROS]
unit-abbrev: kcal/mol
folding stability dG unfold: 4.39
//
residue-string: SAGGSAGGSAGGPPPGDKIEIIVIKFEPRYDPDGEPKNPRIDSIEVITIPADDPDDLLEASAGGSAGGSAGG [r7_439_TrROS]
unit-abbrev: kcal/mol
folding stability dG unfold: 0.805
//
residue-string: SMVIEIPDGTPLEEIIKKVKEAKEKGEPMEVVVTVPNDESVIQALKEAGFEVEVEKDEVKNVTLYKVKLPSA [r9_759_JUSTAS]
unit-abbrev: kcal/mol
folding stability dG unfold: 2.53
//
residue-string: SAGGSAGGSWITPEWIEEIARYLARELGIDDVKIEVERRPDGYVTVEIRNPANGRKVEITVPWSAGGSAGGS [r12_1000_TrROS]
unit-abbrev: kcal/mol
folding stability dG unfold: 3.06
//
residue-string: SAGGMIKITVTLPDPARVRALFAELGLDVEVTPLPDGSVEIYLPEEYKEKVVEALPEEEVEITPVPPLSAGG [r13_261_JUSTAS]
unit-abbrev: kcal/mol
folding stability dG unfold: 3.05

Enquiry: Give the measured folding stability dG unfold for SAGEEKEAKALAEQYAAEFAPKLGMKYEVPEVKVEKDEKTGKITVTVTVKFTFPEPRTVTKKFTIVVPKSAG [r5_381_JUSTAS]
Return: 1.61

Enquiry: Give the measured folding stability dG unfold for SAGGSAGGSAGMGVPPDGATLRFTYPESPSSTRTFTSPEEAAAWIAANLPPEHSVSFSPASAGGSAGGSAGG [r11_983_JUSTAS]
Return: 0.863

Enquiry: Give the measured folding stability dG unfold for SAGGSASIGEELAKELFPDLPLKVEPKEVPLEDGKTETVVTATFPDGKKVTITFEGDKIVEVTEVESAGGSA [r15_417_JUSTAS]
Return: 0.994

Enquiry: Give the measured folding stability dG unfold for SAGGIWIPIDRIREALKDGMPLDEIVDKLRKHGFPIDRITGIEPSPNSWTIEIEFPEQGMPIEIQISSAGGS [r8_179_TrROS]
Return: 1.66

Enquiry: Give the measured folding stability dG unfold for SAGGSASAEEAARAFVAAHPDRALVEVEIERSFIPEKGVEVVTLTVTLAFPDGSRRVVPVTVTRPRSAGGSA [r15_266_JUSTAS]
Return: 1.06

Enquiry: Give the measured folding stability dG unfold for SAGGKLIIVIEVNGETIEVDLEEAETLEEAIQKVLDEIRERFPEIGTVRIKVFDEKGKLIKEIEIKLKSAGG [r13_257_TrROS_Hall]
Return: 3.6

Enquiry: Give the measured folding stability dG unfold for SAGGLIIPEEYEIVEKKAEILPDGSLRYTFILRPKSGELLLVEIRYPPDGSIEIEARRLTPEELKKALSAGG [r13_773_TrMRF]
Return: 3.71

Enquiry: Give the measured folding stability dG unfold for SAGGSAGGGIEEELRRVLPEDATVTIEEVPERPLLVVTVTFPERAETRTFTFSPESPEKLIEALSAGGSAGG [r6_612_JUSTAS]
Return: 0.628
